Recorded inhibition values for a group of compounds are listed next.
molecular target: Genome polyprotein (Dengue virus type 2 (strain 16681-PDK53)) (UniProt P29991); test: flavivirus cap methylation enzyme inhibition – biochemical, confirmation dose response, primary screen (AID 588689); conditions: Dengue-2 NS5 methyltransferase capping enzyme assay, at 25 µM, stronger effect = higher value
Screen size: about 340,000 compounds; about 1,000 (0.29%) were called active. The list is a sample of the results. Entries with a potency or affinity are not part of this list.
Write it as a number; the unit % goes unstated.

Examples with their reported inhibition follow.
O=C1CCCC2=C1C(c1ccc(Br)cc1)c1c([nH]c(=S)[nH]c1=O)N2 (stereo not given) = 15.2
C#CCOc1ccc(Cl)cc1/C=C1/C(=O)ON=C1C = 10.6
CC(=O)Nc1ccc(S(=O)(=O)NCCC(=O)OCC(=O)c2ccc(Br)cc2)cc1 = -10.1

Give reported inhibition value for CCOc1ccc(N2C(=O)CC(N(Cc3ccco3)C(=O)CCC(=O)O)C2=O)cc1 (stereo not given)
-7.79

For the compound Cc1ccc(C2C3=C(CCCC3=O)Nc3[nH]c(=S)[nH]c(=O)c32)cc1 (stereo not given) , report inhibition.
-5.01

====

target: Genome polyprotein (Dengue virus type 2 (strain 16681-PDK53)); test: flavivirus cap methylation enzyme inhibition – biochemical, confirmation dose response, primary screen (AID 588689); conditions: Dengue-2 NS5 methyltransferase capping enzyme assay, at 25 µM, stronger effect = higher value
The whole screen tested about 340,000 compounds, of which about 1,000 (0.29%) were called active. These entries were drawn from the full list. Entries with a potency or affinity are not part of this list.
OBSERVABLE: inhibition (%)
Write the value in % as a bare number.

Cc1noc(C(=O)Nc2ccccc2C(F)(F)F)c1Cl = -9.68
CC(C(=O)Nc1nncs1)N1C(=O)C2C3C=CC(C3)C2C1=O (configuration not stated) = -5.41
O=C(COC(=O)Cc1n[nH]c(=O)c2ccccc12)NNC(=O)c1ccc(Br)cc1 = -4.04
Cc1[nH]n(-c2ccccc2)c(=O)c1C(C[N+](=O)[O-])c1ccc(Br)cc1 (configuration not stated) = 12.4
Nc1cc(=O)[nH]c(SCC(=O)Nc2cccnc2Cl)n1 = 11.6

Output measured inhibition for this item: Cc1ccc(SCc2[nH]nc3c2C2(C(=O)Nc4ccc(F)cc42)C(C#N)=C(N)O3)cc1 (configuration not stated)
2.51

For the molecule Cc1c(F)cccc1NS(=O)(=O)c1ccc2c(c1)c(C)cc(=O)n2C , report inhibition.
-4.58

====

target: Genome polyprotein (Dengue virus type 2 (strain 16681-PDK53)); assay: flavivirus cap methylation enzyme inhibition – biochemical, confirmation dose response, primary screen (AID 588689); conditions: Dengue-2 NS5 methyltransferase capping enzyme assay, at 25 µM, stronger effect = higher value
Hit rate of the full screen: of about 340,000 compounds, about 1,000 (0.29%) were called active. A selection follows. Potency and affinity values are given separately.
OBSERVABLE: inhibition (%)
Just the number in %, nothing appended.

COc1cc(CO)cc(Br)c1OCC(=O)O = -12.1
COc1ccc(C(=O)Cn2c(C(C)=O)nc3ccccc32)cc1 = -4.63
Cc1ncn(-c2ccccc2)c1-c1ccccc1 = 0
O=C1CSCC(=O)N1Cc1ccc(Cl)c(Cl)c1 = 1.96
CCc1ccc(N=C2NC(=O)/C(=C/c3ccc(OCC(=O)O)c(OC)c3)S2)cc1 = -3.47

Would you kindly look at the next entry?
Give the observed inhibition of CCOC(=O)c1[nH]nc2c1C(=O)N(Cc1ccccc1)C2=O for Genome polyprotein (Dengue virus type 2 (strain 16681-PDK53)).
-0.68
